Where do the numbers come from? From ChEMBL document CHEMBL4152330.

target: Urease subunit alpha/Urease subunit beta (Helicobacter pylori (strain ATCC 700392 / 26695) (Campylobacterpylori), UniProt P69996); assay: Inhibition of Helicobacter pylori ATCC 43504 urease assessed as reduction in ammonia production preincubated for 1.5 hrs under cell free condition by indophenol method; assay type: protein-complex assay, Helicobacter pylori NCTC 11637 = CCUG 17874 = ATCC 43504
Sequence (P69996 whole entry): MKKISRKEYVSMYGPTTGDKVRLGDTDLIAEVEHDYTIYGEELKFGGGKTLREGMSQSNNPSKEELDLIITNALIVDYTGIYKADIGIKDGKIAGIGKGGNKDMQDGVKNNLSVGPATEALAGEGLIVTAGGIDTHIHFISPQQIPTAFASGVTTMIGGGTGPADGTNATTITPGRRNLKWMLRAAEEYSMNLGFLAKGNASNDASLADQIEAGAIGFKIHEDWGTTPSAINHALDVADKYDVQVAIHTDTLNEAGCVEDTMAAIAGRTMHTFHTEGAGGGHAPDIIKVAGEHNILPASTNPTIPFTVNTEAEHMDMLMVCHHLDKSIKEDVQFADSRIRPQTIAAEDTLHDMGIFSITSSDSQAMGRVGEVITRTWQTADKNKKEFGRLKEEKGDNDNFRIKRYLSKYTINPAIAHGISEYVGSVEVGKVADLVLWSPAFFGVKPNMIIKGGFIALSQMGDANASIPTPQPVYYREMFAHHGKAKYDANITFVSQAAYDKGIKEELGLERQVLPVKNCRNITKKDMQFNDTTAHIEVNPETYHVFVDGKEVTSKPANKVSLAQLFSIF
Sequence (P14916 whole entry, further chain): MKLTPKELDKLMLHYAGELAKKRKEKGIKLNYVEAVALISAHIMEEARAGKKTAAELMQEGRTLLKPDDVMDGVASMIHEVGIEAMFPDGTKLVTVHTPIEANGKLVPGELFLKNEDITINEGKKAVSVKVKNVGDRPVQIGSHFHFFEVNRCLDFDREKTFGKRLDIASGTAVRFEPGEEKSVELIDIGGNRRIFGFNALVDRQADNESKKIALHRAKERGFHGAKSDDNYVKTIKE
measured.property: IC50 (nM)
Your answer should be a plain number; it is taken to be in nM.

Return reported IC50; argument: O=C(CNc1cc(Cl)ccc1Cl)NO
1640

Return reported IC50; argument: O=C(CCNc1ccccc1Br)NO
130

Return reported IC50; argument: O=C(CNc1ccc(F)cc1)NO
7410
